Taken from patent US9603860B2.

- test.method.notes: Particle size distribution by laser diffraction in wet dispersion
- Type: physicochemical
- condition.notes: dispersant water
// reported d90 per item
measurement.type: d90 (μm)

[
  {
    "compound": "C[C@]12CCC(=O)C=C1[C@@H]1C[C@@H]1[C@H]1[C@@H]3[C@@H]4C[C@@H]4[C@@]4(CCC(=O)O4)[C@@]3(C)CC[C@@H]12 [PR100003, Drospirenone]",
    "endpoint.value": 37.4
  },
  {
    "compound": "C[C@]12CCC(=O)C=C1[C@@H]1C[C@@H]1[C@H]1[C@@H]3[C@@H]4C[C@@H]4[C@@]4(CCC(=O)O4)[C@@]3(C)CC[C@@H]12 [compound 080204, Drospirenone]",
    "endpoint.value": 24.8
  },
  {
    "compound": "C[C@]12CCC(=O)C=C1[C@@H]1C[C@@H]1[C@H]1[C@@H]3[C@@H]4C[C@@H]4[C@@]4(CCC(=O)O4)[C@@]3(C)CC[C@@H]12 [compound 080053, Drospirenone]",
    "endpoint.value": 34.2
  },
  {
    "compound": "C[C@]12CCC(=O)C=C1[C@@H]1C[C@@H]1[C@H]1[C@@H]3[C@@H]4C[C@@H]4[C@@]4(CCC(=O)O4)[C@@]3(C)CC[C@@H]12 [compound 080257, Drospirenone]",
    "endpoint.value": 23.4
  },
  {
    "compound": "C[C@]12CCC(=O)C=C1[C@@H]1C[C@@H]1[C@H]1[C@@H]3[C@@H]4C[C@@H]4[C@@]4(CCC(=O)O4)[C@@]3(C)CC[C@@H]12 [compound 080169, Drospirenone]",
    "endpoint.value": 37.1
  }
]

* * *

- test.method.notes: Specific area by BET method
- Format: physicochemical
Attribute: Specific area
measurement.type: Specific area (m^2/g)

[
  {
    "molecule": "C[C@]12CCC(=O)C=C1[C@@H]1C[C@@H]1[C@H]1[C@@H]3[C@@H]4C[C@@H]4[C@@]4(CCC(=O)O4)[C@@]3(C)CC[C@@H]12 [compound 080053, Drospirenone]",
    "endpoint.value": 0.63
  },
  {
    "molecule": "C[C@]12CCC(=O)C=C1[C@@H]1C[C@@H]1[C@H]1[C@@H]3[C@@H]4C[C@@H]4[C@@]4(CCC(=O)O4)[C@@]3(C)CC[C@@H]12 [compound 080169, Drospirenone]",
    "endpoint.value": 0.45
  },
  {
    "molecule": "C[C@]12CCC(=O)C=C1[C@@H]1C[C@@H]1[C@H]1[C@@H]3[C@@H]4C[C@@H]4[C@@]4(CCC(=O)O4)[C@@]3(C)CC[C@@H]12 [PR100003, Drospirenone]",
    "endpoint.value": 0.26
  },
  {
    "molecule": "C[C@]12CCC(=O)C=C1[C@@H]1C[C@@H]1[C@H]1[C@@H]3[C@@H]4C[C@@H]4[C@@]4(CCC(=O)O4)[C@@]3(C)CC[C@@H]12 [compound 080257, Drospirenone]",
    "endpoint.value": 0.77
  },
  {
    "molecule": "C[C@]12CCC(=O)C=C1[C@@H]1C[C@@H]1[C@H]1[C@@H]3[C@@H]4C[C@@H]4[C@@]4(CCC(=O)O4)[C@@]3(C)CC[C@@H]12 [PR100311, Drospirenone]",
    "endpoint.value": 0.66
  },
  {
    "molecule": "C[C@]12CCC(=O)C=C1[C@@H]1C[C@@H]1[C@H]1[C@@H]3[C@@H]4C[C@@H]4[C@@]4(CCC(=O)O4)[C@@]3(C)CC[C@@H]12 [compound 080204, Drospirenone]",
    "endpoint.value": 0.83
  }
]

* * *

- test.method.notes: Particle size distribution by laser diffraction in wet dispersion
- Assay type: physicochemical
- condition.notes: dispersant water

[
  {
    "compound": "C[C@]12CCC(=O)C=C1[C@@H]1C[C@@H]1[C@H]1[C@@H]3[C@@H]4C[C@@H]4[C@@]4(CCC(=O)O4)[C@@]3(C)CC[C@@H]12 [compound 080257, Drospirenone]",
    "d10 / μm": 5.3
  },
  {
    "compound": "C[C@]12CCC(=O)C=C1[C@@H]1C[C@@H]1[C@H]1[C@@H]3[C@@H]4C[C@@H]4[C@@]4(CCC(=O)O4)[C@@]3(C)CC[C@@H]12 [compound 080204, Drospirenone]",
    "d10 / μm": 4.4
  },
  {
    "compound": "C[C@]12CCC(=O)C=C1[C@@H]1C[C@@H]1[C@H]1[C@@H]3[C@@H]4C[C@@H]4[C@@]4(CCC(=O)O4)[C@@]3(C)CC[C@@H]12 [compound 080169, Drospirenone]",
    "d10 / μm": 2.9
  },
  {
    "compound": "C[C@]12CCC(=O)C=C1[C@@H]1C[C@@H]1[C@H]1[C@@H]3[C@@H]4C[C@@H]4[C@@]4(CCC(=O)O4)[C@@]3(C)CC[C@@H]12 [compound 080053, Drospirenone]",
    "d10 / μm": 7.2
  },
  {
    "compound": "C[C@]12CCC(=O)C=C1[C@@H]1C[C@@H]1[C@H]1[C@@H]3[C@@H]4C[C@@H]4[C@@]4(CCC(=O)O4)[C@@]3(C)CC[C@@H]12 [PR100003, Drospirenone]",
    "d10 / μm": 5.9
  }
]

* * *

- test.method.notes: Particle size distribution by laser diffraction in wet dispersion
- Format: physicochemical
- condition.notes: dispersant water
measurement.type: d99 (μm)

[
  {
    "molecule": "C[C@]12CCC(=O)C=C1[C@@H]1C[C@@H]1[C@H]1[C@@H]3[C@@H]4C[C@@H]4[C@@]4(CCC(=O)O4)[C@@]3(C)CC[C@@H]12 [compound 080169, Drospirenone]",
    "measurement.type": "d99",
    "endpoint.value": 48.9
  },
  {
    "molecule": "C[C@]12CCC(=O)C=C1[C@@H]1C[C@@H]1[C@H]1[C@@H]3[C@@H]4C[C@@H]4[C@@]4(CCC(=O)O4)[C@@]3(C)CC[C@@H]12 [compound 080204, Drospirenone]",
    "measurement.type": "d99",
    "endpoint.value": 34.5
  },
  {
    "molecule": "C[C@]12CCC(=O)C=C1[C@@H]1C[C@@H]1[C@H]1[C@@H]3[C@@H]4C[C@@H]4[C@@]4(CCC(=O)O4)[C@@]3(C)CC[C@@H]12 [PR100003, Drospirenone]",
    "measurement.type": "d99",
    "endpoint.value": 56.1
  },
  {
    "molecule": "C[C@]12CCC(=O)C=C1[C@@H]1C[C@@H]1[C@H]1[C@@H]3[C@@H]4C[C@@H]4[C@@]4(CCC(=O)O4)[C@@]3(C)CC[C@@H]12 [compound 080257, Drospirenone]",
    "measurement.type": "d99",
    "endpoint.value": 35.3
  },
  {
    "molecule": "C[C@]12CCC(=O)C=C1[C@@H]1C[C@@H]1[C@H]1[C@@H]3[C@@H]4C[C@@H]4[C@@]4(CCC(=O)O4)[C@@]3(C)CC[C@@H]12 [compound 080053, Drospirenone]",
    "measurement.type": "d99",
    "endpoint.value": 44.8
  }
]
